- Tgt: T1, human ILT6 (LILRA3) on CHO cells (human, UniProt Q8N6C8 24-434)
- T1 construct: also called CHO ILT6 cell line; human ILT-6 polypeptide
- Protocol Text: flow cytometry, CHO transfectants

{"columns": ["Binder", "binding result"],
 "data": [
  ["3E5 (antibody, human IgG1, V domains shown) VH: DVQLQESGPELVKPGASVKISCKSSGYSFTNFYIHWVKQRPGQGLDWIGWIFPGTGETNFNEKFKVKAALTADTSSSTVYMQLSTLTSEDSAVYFCARSWNYDARWGYWGQGTSITVSS VL: ENVLTQSPASLAVSLGQRATISCRASESIDSFGISFMHWYQQKPGQPPKLLIYRASNLESGIPARFSGSGSGPDFSLTIDPVEADDVATYYCQQSNEAPFTFGSGTKLEIK", "no binding"],
  ["4H3 (antibody, human IgG1, V domains shown) VH: QVQLKESGPELVKPGASVKISCKTSGYIFTNYYIHWVKQRPGQGLEWIGWIFPGSGDTNYNEKFKGKATLTADTSSSTASMQLSSLTSEDSAVYFCARTWNYDARWGYWGQGTTVTVSS VL: DILLTQSPASLAVSLGQRATISCRVSESIDSYGISFMHWYQQKSGQPPKVLIYRASTLESGIPARFSGSGSRTDFTLTINPVEADDVATYYCQQSNEDPFTFGSGTKLEIK", "no binding"],
  ["2A8A (antibody, human IgG1, V domains shown) VH: QVQLQQSGPELVKPGASVKISCKASGYSFTNFYIHWVRQRPGQGLDWIGWIFPGSGETKFNEKFKVKATLTADTSSSTAYMQLNSLTSEDSAVYFCARSWNYDARWGYWGQGTSVTVSS VL: QIVLTQSPASLAVSLGQRATISCRASESIDSYGISFLHWYQQKPGQPPKLLIYRASNLESGIPARFSGSGSRPDFTLTINPVEADDVATYYCQQSNEDPFTFGSGTKLEIK", "no binding"]
]}
